- Assay target: pooled human IgG (human IgG1,2,3 and 4)
# Enzyme activity endpoint: Fab′2 values compiled below
Experimental endpoint: Enzyme activity endpoint: Fab′2 (ng/µL)

{"columns": ["Protein", "Endpoint unit", "Reported value"],
 "data": [
  ["PRT-695 (protein) MTITTVWTKGVTPPTPEDFRYNNEDVLHAPYVPNQGWYDITKTFDGKDNLLCGAATAGNMLHWWFDQNKEEIERYLKKYPEKQKIIFNNQELFDVRAAINTKDSQTNSKLFNYFRDKAFPNLSARQLGVMPDLVLDMFINGYYLNLGKTQSTDVNRPYQDRDKRGGIFDAVFNRGDQTTLLTARHDLKNKGLNEISDLIKQELSSGKALALSHTYANVRINHVINLWGADFDAEGNLIAIYVTDSDANASIGMKKYYVGVNANGKVAISAKKIEGDNIGAQVLGLFTLSTGQDIWQKLSLEHHHHHH", "ng/µL", 781],
  ["PRT-570 (protein) MANQEIRYSEATPSHITSVWTKGVTPPEQFIQNEDVLHAPYIANQGWYDITKTFNGKDDLLCGAATAGNMLHWWFDQNKEQIEAYLKKHPEKQKINFNGEQMFDVKEAIDTKDSQTDSALFNYFKDKAFPYLSTKHLGVFPDHVIDMFINGYRLSLTNHGPTPVKEQTKDPRGGIFDAVFTRGDQSKLLTSRHDFKEKTLKEISQLIKQELTEGKALGLSHTYANVRINHVINLWGADFNAEGNLEAIYVTDSDSNASIGMKKYYVGVNSAGKVAISAKEIEGDNIGAQVLGLFTLSTGQDIWQQTNLEHHHHHH", "ng/µL", 551],
  ["PRT-653 (protein) MQITSVWTKGVTPLTPEQFRYNNEDVIHAPYLAHQGWYDITKAFDGKDNLLCGAATAGNMLHWWFDQNKTEIEAYLSKHPEKQKIIFNNQELFDLKAAIDTKDSQTNSQLFNYFRDKAFPNLSARQLGVMPDLVLDMFINGYYLNVFKTQSTDVNRPYQDKDKRGGIFDAVFTRGDQTTLLTARHDLKNKGLNDISTIIKQELTEGRALALSHTYGNVRSSHVINLWGADFNAEGNLEAIYVTDSDANASIGMKKYFVGINAHGHVAISAKKIEGENVGAQVLGLFTLSSGKDIWQKLSLEHHHHHH", "ng/µL", 1350],
  ["PRT-616 (protein) MQITTVWTKGVTPLTPEQFRYNNEDVIHAPYLPHQGWYDITKAFDGKDNLLCGAATAGNMLHWWFDQNKTEIEAYLSKYPEKQKIIFNNQELFDLRAAINTKDSQTNSQLFNYFRDKAFPNLSARQLGVMPDLVLDMFINGYYLNVFKTQSTDVNRPYQDRDKRGGIFDAVFNRGDQTTLLTARHDLKNKGLNDISTIIKQELSSGRALALSHTYANVSISHVINLWGADFNAEGNLEAIYVTDSDANASIGMKKYYVGINAHGHVAISAKKIEGENIGAQVLGLFTLSSGKDIWQKLSLEHHHHHH", "ng/µL", 943]
]}
